The origin of these recorded values is patent US20220127247A1.

Some compounds, each annotated with its measured Emax.
- study target: delF508-CFTR (Homo sapiens, UniProt P13569, DEL508-508)
- Construct: expressed in transfected cells
- Sequence (P13569 with tags, fused parts or gaps DEL508-508): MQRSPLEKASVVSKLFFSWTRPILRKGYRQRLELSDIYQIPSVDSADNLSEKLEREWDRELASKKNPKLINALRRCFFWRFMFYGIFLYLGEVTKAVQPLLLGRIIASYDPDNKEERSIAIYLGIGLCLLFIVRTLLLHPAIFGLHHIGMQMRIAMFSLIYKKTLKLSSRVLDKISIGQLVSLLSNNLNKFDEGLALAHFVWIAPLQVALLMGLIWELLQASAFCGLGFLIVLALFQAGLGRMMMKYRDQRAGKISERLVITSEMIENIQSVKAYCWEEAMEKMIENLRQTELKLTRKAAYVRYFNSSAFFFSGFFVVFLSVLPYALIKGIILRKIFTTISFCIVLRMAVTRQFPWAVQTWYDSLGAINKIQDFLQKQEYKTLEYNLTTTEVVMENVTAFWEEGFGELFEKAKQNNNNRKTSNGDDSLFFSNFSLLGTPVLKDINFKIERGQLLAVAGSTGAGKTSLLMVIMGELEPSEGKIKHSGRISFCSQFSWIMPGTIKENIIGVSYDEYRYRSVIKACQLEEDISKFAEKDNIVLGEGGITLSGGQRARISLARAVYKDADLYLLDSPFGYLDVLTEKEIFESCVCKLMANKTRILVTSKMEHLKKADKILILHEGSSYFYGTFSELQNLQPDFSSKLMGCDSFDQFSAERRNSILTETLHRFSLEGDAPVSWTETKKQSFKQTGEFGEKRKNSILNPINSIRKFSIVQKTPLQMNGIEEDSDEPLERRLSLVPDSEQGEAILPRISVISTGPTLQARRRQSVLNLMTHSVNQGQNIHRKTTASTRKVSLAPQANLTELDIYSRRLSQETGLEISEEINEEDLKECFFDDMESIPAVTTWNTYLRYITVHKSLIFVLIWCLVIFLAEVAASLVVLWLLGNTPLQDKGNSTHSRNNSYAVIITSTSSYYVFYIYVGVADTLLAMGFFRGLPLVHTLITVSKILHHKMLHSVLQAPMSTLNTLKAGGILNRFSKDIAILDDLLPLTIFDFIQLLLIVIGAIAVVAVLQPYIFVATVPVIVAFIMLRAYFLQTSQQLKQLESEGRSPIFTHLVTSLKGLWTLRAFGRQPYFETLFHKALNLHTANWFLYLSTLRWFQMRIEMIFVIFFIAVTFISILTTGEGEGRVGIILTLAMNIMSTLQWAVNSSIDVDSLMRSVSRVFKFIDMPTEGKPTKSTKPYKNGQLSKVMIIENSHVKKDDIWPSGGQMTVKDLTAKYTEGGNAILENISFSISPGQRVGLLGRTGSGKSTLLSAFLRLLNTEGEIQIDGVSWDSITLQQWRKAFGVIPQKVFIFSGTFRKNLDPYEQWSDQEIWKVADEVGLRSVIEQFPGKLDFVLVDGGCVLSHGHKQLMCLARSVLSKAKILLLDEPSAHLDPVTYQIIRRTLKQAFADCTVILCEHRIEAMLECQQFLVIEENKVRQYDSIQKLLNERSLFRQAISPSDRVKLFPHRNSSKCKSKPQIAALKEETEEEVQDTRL
- assay protocol: Measurement of delF508-CFTR-HRP surface expression in CFBE41o- cells
- Format: cell-based
- experimental context: efficacy relative to reference compound 3-(6-(1-(2,2-difluorobenzo[d][1,3]dioxol-5-yl)cyclopropane-1-carboxamido)-3-methylpyridin-2-yl)benzoic acid; CFBE41o- cells, 24 h; read-out: DelF508-CFTR-HRP Amax %
# unit: % | format: bare number

Please review the entries below; each comes with its answer.
Data request, read-out Emax, for Cc1ccccc1-c1nc(NS(=O)(=O)c2cccc(NCC3(C(=O)O)CCC3)n2)ccc1C(F)(F)F [Compound 12]
608

Form field: reported Emax of Cc1ccccc1-c1nc(NS(=O)(=O)c2cccc(N[C@@H]3[C@@H]4CC[C@@H](C4)[C@@H]3C(=O)O)n2)ccc1C(F)(F)F (racemic) [109a 109b (racemic mixture)]
700

I would be grateful if you could share the reported Emax for Cc1ccccc1-c1nc(NS(=O)(=O)c2cccc(N(C)CC3(C(=O)O)CCCC3)n2)ccc1C(F)(F)F [Compound 130] .
403

For the compound shown here, Cc1ccc(F)cc1-c1nc(NS(=O)(=O)c2cccc(N(C)CC(C)(C)C(=O)O)n2)ccc1C(F)(F)F [Compound 45] , give the reported Emax.
598

Fill blank: measured Emax of the compound Cc1cccc(C)c1-c1nc(NS(=O)(=O)c2cccc(NCCC(=O)O)n2)ccc1Cl [Compound 1] is ____.
291

Next:
# query: Emax of entry Cc1ccc(F)cc1-c1nc(NS(=O)(=O)c2cccc(N(C)CCCCC(=O)O)n2)ccc1C(F)(F)F [Compound 68]
996

If you can, please state the reported Emax value of CC1(CC(=O)O)CCN(c2cccc(S(=O)(=O)Nc3ccc(C(F)(F)F)c(-c4ccccc4C4CCC4)n3)n2)CC1 [Compound 24] .
909

Need Emax, item CC(C)c1ccccc1-c1nc(NS(=O)(=O)c2cccc(N3CCC(C)(CC(=O)O)CC3)n2)ccc1C(F)(F)F [Compound 25]
780

Which Emax value belongs to CCC(NC(=O)C1CCC(Nc2cccc(S(=O)(=O)Nc3ccc(Cl)c(-c4ccccc4C)n3)n2)CC1)C(=O)O (centres unmarked) [Compound 136] ?
952

Would you kindly share the measured Emax for COc1ccc(Cl)c(-c2nc(NS(=O)(=O)c3cccc(N4CCN(c5ccc(C(=O)O)cc5)CC4)n3)ccc2C(F)(F)F)c1 [Compound 21] ?
361

Emax lookup needed for O=C(O)CC1CCN(c2cccc(S(=O)(=O)Nc3ccc(C(F)(F)F)c(-c4ccccc4-c4ccccc4)n3)n2)CC1 [Compound 16] , thanks.
495

---

- study target: delF508-CFTR (Homo sapiens, UniProt P13569, DEL508-508)
- Construct: expressed in transfected cells
- assay protocol: Measurement of delF508-CFTR-HRP surface expression in CFBE41o- cells
- Format: cell-based
- experimental context: HRP-tagged delF508-CFTR in CFBE41o- cells, 24 h with compound, luminescence, 10-point curve, top 10 μM
result type: EC50 (nM)
Write the number in nM without appending the unit.

Previously resolved entries follow.
EC50 for Cc1ccccc1-c1nc(NS(=O)(=O)c2cccc(N3CCCC(CCC(=O)O)C3)n2)ccc1C(F)(F)F (centres unmarked) ?
1390

# input compound: Cc1ccccc1-c1nc(NS(=O)(=O)c2cccc(N(C)CC3(C(=O)O)CCC3)n2)ccc1C(F)(F)F ; wanted: its EC50
2030

Param item = Cc1ccccc1-c1nc(NS(=O)(=O)c2cccc(NC3CCCC(C(=O)O)C3)n2)ccc1C(F)(F)F (mixture of isomers) ; retrieve measured EC50.
1810

Could you tell me which EC50 is on file for Cc1ccccc1-c1nc(NS(=O)(=O)c2cccc(N3CCC[C@](C)(CC(=O)O)C3)n2)ccc1C(F)(F)F (single isomer, unassigned) ?
1610

Proceeding to the next compound to report its EC50.
Recorded EC50 of Cc1ccc(F)cc1-c1nc(NS(=O)(=O)c2cccc(N(CCC(=O)O)C(C)C)n2)ccc1C(F)(F)F , please.
1570
